Tested On: T1, VEGFR-1-Fc (UniProt P17948 27-338)
T1 construct: domain: first three Ig domains; expressed in Drosophila S2 cells, purified on Protein A sepharose; also called VEGFR-1-Fc fusion protein; not shown: Fc fragment from the Signal-pIgPlus vector
T1 sequence (P17948 27-338): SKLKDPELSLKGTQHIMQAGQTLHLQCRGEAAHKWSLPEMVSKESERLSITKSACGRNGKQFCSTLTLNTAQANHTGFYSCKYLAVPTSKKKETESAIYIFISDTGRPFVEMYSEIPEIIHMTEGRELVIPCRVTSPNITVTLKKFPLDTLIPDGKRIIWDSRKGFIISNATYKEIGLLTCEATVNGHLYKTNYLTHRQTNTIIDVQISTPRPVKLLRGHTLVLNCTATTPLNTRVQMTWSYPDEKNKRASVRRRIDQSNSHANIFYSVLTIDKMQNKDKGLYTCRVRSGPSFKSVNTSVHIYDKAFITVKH
Run Description: receptor-Fc IP
Observed Property: binding result

binder="84-9 (ligand, clone entry) AHYNTEILKFMDVYQRSYCHPIETLVDIFQEFGVATNTFFKPSCVPLMRCGGCCNDEGLECVPTEESNITMQIMRITVPLSQGPKPVTISFLQHNKCECRPKKDL" result_value=binds
binder="33-7 (ligand) GQNHHEVVKSIDNEWRKTQCMPIETLVDIFQEYPDEIEYIFKPPCVSVYRCGGCCNSEGLQCVPTEESNITMQIMRIKPHQGQHIGEMSFANHTSCRCMSKLD" result_value="no binding"
binder="44-9 (ligand) AHYNTEILKFMDVYQRSYCHPREVCIDVGKEFGVATNTFFKPSCVPLMRCGGCCNDEGLECVPTEESNITMQIMRITVPLSQGPKPVTISFLQHNKCECRPKKD" result_value="no binding"
binder="51-7 (ligand) AHYNTEILKSIDNEWRKTQCMPIETLVDIFQEYPDEIEYIFKPSCVPLMRCGGCCNSEGLQCVPTEESNITMQIMRIKPHQGQHIGEMSFANHTSCRCMSKLD" result_value="no binding"
